- Tested system: T1, human IL-12 (human, UniProt P29460 23-328; P29459 23-219)
- T1 construct: Recombinant (Peprotech); FLAG-tagged IL-12 in the flow cytometry assays, biotinylated in the IL-12Rβ2 assay; also called hIL-12
- T1 sequence 1: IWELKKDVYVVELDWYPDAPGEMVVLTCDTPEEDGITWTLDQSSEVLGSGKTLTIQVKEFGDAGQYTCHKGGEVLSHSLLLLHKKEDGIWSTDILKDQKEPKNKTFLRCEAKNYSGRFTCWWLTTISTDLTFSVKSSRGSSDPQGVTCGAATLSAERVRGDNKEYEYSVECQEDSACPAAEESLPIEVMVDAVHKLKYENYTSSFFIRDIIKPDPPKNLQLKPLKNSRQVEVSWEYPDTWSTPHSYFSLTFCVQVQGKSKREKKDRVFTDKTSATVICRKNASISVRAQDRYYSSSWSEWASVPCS
- T1 sequence 2: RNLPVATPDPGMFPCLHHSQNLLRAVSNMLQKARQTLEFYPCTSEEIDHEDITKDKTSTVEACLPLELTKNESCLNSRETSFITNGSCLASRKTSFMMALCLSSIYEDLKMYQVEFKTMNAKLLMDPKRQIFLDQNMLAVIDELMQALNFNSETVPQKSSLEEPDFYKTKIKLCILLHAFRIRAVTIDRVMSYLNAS
- Experiment: SPR, purified scFv captured via FLAG
Readout: koff

Summary for this binder, scFv AV-F11 (scFv, scFv-80 variant: VH S112P; VL I75T; not shown: proprietary C-terminal FLAG tag) scFv: QVQLVQSGAEVKKPGASVKVSCKASGYTFTDYYLHWVRQAPGQGLEWMGWIDPENGDTEYAPKFQGRVTMTTDTSTSTAYMELRSLRSDDTAVYYCNANKELRYFDVWGQGTMVTVPSGGGGSGGGGSGGGGSEIVMTQSPATLSVSPGERATLSCRASQSISINLHWYQQKPGQAPRLLIYFASQSISGIPARFSGSGSGTEFTLTTSSLQSEDFAVYYCQQSNSFPLTFGGGTKVEIKR : koff is 0.00033 s⁻¹

# koff (binder: scFv BB-A9 (scFv, scFv-80 variant: VH T28A, T68S; not shown: proprietary C-terminal FLAG tag) scFv: QVQLVQSGAEVKKPGASVKVSCKASGYAFTDYYLHWVRQAPGQGLEWMGWIDPENGDTEYAPKFQGRVSMTTDTSTSTAYMELRSLRSDDTAVYYCNANKELRYFDVWGQGTMVTVSSGGGGSGGGGSGGGGSEIVMTQSPATLSVSPGERATLSCRASQSISINLHWYQQKPGQAPRLLIYFASQSISGIPARFSGSGSGTEFTLTISSLQSEDFAVYYCQQSNSFPLTFGGGTKVEIKR ) is 0.00023 s⁻¹

Query scFv AU-G9 (scFv, scFv-80 variant: VH Q43R; VL I55T; not shown: proprietary C-terminal FLAG tag) scFv: QVQLVQSGAEVKKPGASVKVSCKASGYTFTDYYLHWVRQAPGRGLEWMGWIDPENGDTEYAPKFQGRVTMTTDTSTSTAYMELRSLRSDDTAVYYCNANKELRYFDVWGQGTMVTVSSGGGGSGGGGSGGGGSEIVMTQSPATLSVSPGERATLSCRASQSISINLHWYQQKPGQAPRLLIYFASQSTSGIPARFSGSGSGTEFTLTISSLQSEDFAVYYCQQSNSFPLTFGGGTKVEIKR yields koff of 0.00024 s⁻¹
